Data provenance: patent US20040253247A1

target: mouse albumin (mouse, UniProt P07724 25-608); experiment: SA08b binding assay: competition with biotinylated SA08b for immobilized albumin
Sequence (P07724 25-608 limits assumed): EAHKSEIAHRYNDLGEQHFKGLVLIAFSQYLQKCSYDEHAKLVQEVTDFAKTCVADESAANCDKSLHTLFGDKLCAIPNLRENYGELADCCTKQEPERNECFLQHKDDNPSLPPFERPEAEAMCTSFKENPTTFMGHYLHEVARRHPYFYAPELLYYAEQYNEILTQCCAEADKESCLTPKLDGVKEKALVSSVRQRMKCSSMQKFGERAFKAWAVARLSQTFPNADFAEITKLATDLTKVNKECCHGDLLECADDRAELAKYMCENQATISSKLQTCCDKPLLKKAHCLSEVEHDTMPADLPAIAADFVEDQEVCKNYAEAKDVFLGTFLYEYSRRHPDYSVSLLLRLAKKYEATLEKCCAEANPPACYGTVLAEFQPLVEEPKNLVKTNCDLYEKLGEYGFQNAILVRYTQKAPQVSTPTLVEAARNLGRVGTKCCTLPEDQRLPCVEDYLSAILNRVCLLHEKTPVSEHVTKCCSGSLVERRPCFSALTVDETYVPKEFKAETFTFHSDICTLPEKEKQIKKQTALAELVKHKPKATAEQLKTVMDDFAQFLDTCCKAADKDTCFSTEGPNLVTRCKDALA
Bridges are numbered along the chain shown (N, C = ends). Where no end group is shown, it is not given here. code n = not defined here
result_type: pIC50
// scale note: pIC50 = -log10(conc_M); give the bare number

Which pIC50 reading was recorded for the binder MEDICLPRWGCLWED-{code n} (disulfide 5-11 (inferred); reading uncertain; also: printed as Met-Glu-Asp-Ile-Cys-Leu-Pro-Arg-Trp-Gly-Cys-Leu-Trp-Glu-Asp, synthesized peptide) [SA05] ?
8.22

// same read-out, input: Ac-MEDICLPRWGCLWED-{code n} (disulfide 5-11 (inferred); reading uncertain; also: printed as Met-Glu-Asp-Ile-Cys-Leu-Pro-Arg-Trp-Gly-Cys-Leu-Trp-Glu-Asp, synthesized peptide) [SA12]
7.89

Would you mind doing Ac-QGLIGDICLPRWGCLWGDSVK-{code n} (disulfide 8-14 (inferred); reading uncertain; also: printed as Gln-Gly-Leu-Ile-Gly-Asp-Ile-Cys-Leu-Pro-Arg-Trp-Gly-Cys-Leu-Trp-Gly-Asp-Ser-Val-Lys, synthesized peptide; not biotinylated form of SA08b; also called SA08 peptide) [SA08] as well?
8.00

# iterate: Ac-EDICLPRWGCLWEDD-{code n} (disulfide 4-10 (inferred); reading uncertain; also: printed as Glu-Asp-Ile-Cys-Leu-Pro-Arg-Trp-Gly-Cys-Leu-Trp-Glu-Asp-Asp, synthesized peptide) [SA09]
8.22

What do we get for DICLPRWGCLW-{code n} (disulfide 3-9 (inferred); reading uncertain; also: printed as Asp-Ile-Cys-Leu-Pro-Arg-Trp-Gly-Cys-Leu-Trp, synthesized peptide) [SA04] ?
7.40

Now the binder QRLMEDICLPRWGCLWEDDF-{code n} (disulfide 8-14 (inferred); not fully specified; reading uncertain, synthesized peptide; also called Peptide SA06) [SA06]
8.10

What about this binder? Ac-MEDICLPRWGCLWEDD-{code n} (disulfide 5-11 (inferred); reading uncertain; also: printed as Met-Glu-Asp-Ile-Cys-Leu-Pro-Arg-Trp-Gly-Cys-Leu-Trp-Glu-Asp-Asp, synthesized peptide) [SA11]
7.77

Cool, now QGLIGDICLPRWGCLWGDSV-{code n} (disulfide 8-14 (inferred); reading uncertain; also: printed as Gln-Gly-Leu-Ile-Gly-Asp-Ile-Cys-Leu-Pro-Arg-Trp-Gly-Cys-Leu-Trp-Gly-Asp-Ser-Val, synthesized peptide) [SA07]
8.22
